From: patent US8673910B2

observable: melting point

| compound | observable | result |
| --- | --- | --- |
| CC1=C(Nc2ccc(S(=O)(=O)Nc3ccccn3)cc2)C(=O)c2ccccc2C1=O | melting point | 220 to 222 °C |
| CN(C1=C(Cl)C(=O)c2ccccc2C1=O)c1ccc(S(=O)(=O)Nc2ccccn2)cc1 | melting point | 152 to 154 °C |
| CCN(C1=C(Cl)C(=O)c2ccccc2C1=O)c1ccc(S(=O)(=O)Nc2ccccn2)cc1 | melting point | 180 to 182 °C |
| COc1cc(NC2=C(Cl)C(=O)c3ccccc3C2=O)ccc1S(=O)(=O)Nc1ccccc1C [Compound 13h] | melting point | 197 to 200 °C |
| Cc1cccc(NS(=O)(=O)c2ccc(NC3=C(Cl)C(=O)c4ccccc4C3=O)cc2)c1 [Compound 13c] | melting point | 234 to 237 °C |
| O=C1C(Cl)=C(N(Cc2ccc3ccccc3c2)c2ccc(S(=O)(=O)Nc3ccccn3)cc2)C(=O)c2ccccc21 | melting point | 165 to 167 °C |
| O=C1C(Cl)=C(N(Cc2ccccc2)c2ccc(S(=O)(=O)Nc3ccccn3)cc2)C(=O)c2ccccc21 | melting point | 78 to 80 °C |
| COc1ccc(NS(=O)(=O)c2ccc(NC3=C(Cl)C(=O)c4ccccc4C3=O)cc2)cc1 [Compound 13f] | melting point | 233 to 234 °C |

====

Measured IC50 by item
system: A549 lung cancer cells; assay: MTT metabolism assay; format: cell-based; conditions: Homo sapiens; A549, 24 h; mean ± SD of 3 to 5 experiments; read-out: IC50 for cell viability measured by MTT assay
observable: IC50

| compound | experimentalTarget | observable | result |
| --- | --- | --- | --- |
| CC(C)C[C@H](NC(=O)[C@H](Cc1ccccc1)NC(=O)c1cnccn1)B(O)O [Bortezomib, reference compound] | A549 lung cancer cells | IC50 | > 30 µM |
| O=C1C(Cl)=C(Nc2ccc(S(=O)(=O)Nc3ccccn3)cc2)C(=O)c2ccccc21 | A549 lung cancer cells | IC50 | 41 µM |

====

target: chymotrypsin-like (CT-L) activity of purified 20S rabbit proteasome (Oryctolagus cuniculus, UniProt G1T4Q9); test: Proteolytic activity of purified 20S proteasome, fluorogenic substrate Suc-Leu-Leu-Val-Tyr-AMC; type: biochemical; conditions: hydronaphthoquinone sulfonamides (Table 9); purified rabbit 20S proteasome; read-out: IC50 (μM), inhibition of chymotrypsin-like activity
Sequence (G1T4Q9 1-263): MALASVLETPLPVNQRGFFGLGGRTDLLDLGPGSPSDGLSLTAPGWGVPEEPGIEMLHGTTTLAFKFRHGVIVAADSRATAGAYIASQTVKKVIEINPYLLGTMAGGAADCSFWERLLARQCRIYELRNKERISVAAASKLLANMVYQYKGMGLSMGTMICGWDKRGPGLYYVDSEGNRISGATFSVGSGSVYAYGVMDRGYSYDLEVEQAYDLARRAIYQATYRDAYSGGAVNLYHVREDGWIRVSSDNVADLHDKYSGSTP
The entries below come with measured IC50 values attached.
observable: IC50

| compound | result |
| --- | --- |
| O=C(O)CSc1cc(NS(=O)(=O)c2ccc3ccccc3c2)c2ccccc2c1O [Compound 14q] | 4.83 µM |
| CC(Sc1cc(NS(=O)(=O)c2ccc(Cl)cc2)c2ccccc2c1O)C(=O)O (stereo not drawn) [Compound 14u] | 8.57 µM |
| O=C(O)CCSc1cc(NS(=O)(=O)c2cccs2)c2ccccc2c1O [Compound 10b] | > 10 µM |
| O=C(O)CSc1cc(NS(=O)(=O)c2cc(Cl)c(Cl)s2)c2ccccc2c1O [Compound 14n] | 2.07 µM |
| CCOC(=O)CSc1cc(NS(=O)(=O)c2ccccc2)c2ccccc2c1O [Compound 9c] | 5.27 µM |
| O=C(O)c1ccccc1Sc1cc(NS(=O)(=O)c2ccc(-c3ccccc3)cc2)c2ccccc2c1O [Compound 14t] | 2.19 µM |

====

molecular target: chymotrypsin-like (CT-L) activity of purified 20S rabbit proteasome (Oryctolagus cuniculus); assay: Proteolytic activity of purified 20S proteasome, fluorogenic substrate Suc-Leu-Leu-Val-Tyr-AMC; format: biochemical; details: hydronaphthoquinone sulfonamides (Table 9); purified rabbit 20S proteasome; listed as HLM-008182; read-out: IC50 (μM), inhibition of chymotrypsin-like activity

| molecule | outputUnit | IC50 |
| --- | --- | --- |
| O=C(O)CSc1cc(NS(=O)(=O)c2cccs2)c2ccccc2c1O [Compound 10a] | µM | 0.65 |

====

tested on: primary multiple myeloma cells isolated from patients' bone marrow; assay: Viability of primary multiple myeloma cells (MTT assay); format: cell-based, human; conditions: primary MM cells, 48 h, Table 5: one value per patient, b176: mean over patients, listed as bortezomib, read-out: Viability 48 h (IC50 values)
observable: IC50

| compound | observable | result |
| --- | --- | --- |
| CC(C)C[C@H](NC(=O)[C@H](Cc1ccccc1)NC(=O)c1cnccn1)B(O)O [Bortezomib, reference compound] | IC50 | 140 nM |

====

target: chymotrypsin-like (CT-L) activity of purified 20S rabbit proteasome (Oryctolagus cuniculus); test: Proteolytic activity of purified 20S proteasome, fluorogenic substrate Suc-Leu-Leu-Val-Tyr-AMC; format: biochemical; settings: PI-083 derivatives (Table 7, naphthoquinone library); purified rabbit 20S proteasome; read-out: IC50 (μM) Chymotrypsin-like activity
Catalogue of compounds with associated IC50
observable: IC50 (µM)

| compound | number |
| --- | --- |
| O=C1C(Cl)=C(Nc2ccc(S(=O)(=O)Nc3cnn(-c4ccccc4)c3)cc2)C(=O)c2ccccc21 [Compound 2b] | 7.4 |
| NS(=O)(=O)c1ccc(NC2=C(Cl)C(=O)c3ccccc3C2=O)cc1 [Compound 2t] | 1.1 |
| Cc1nnc(NS(=O)(=O)c2ccc(NC3=C(Cl)C(=O)c4ccccc4C3=O)cc2)s1 [Compound 2f] | 3.9 |
| O=C1C(Cl)=C(Nc2ccc(S(=O)(=O)Nc3nccs3)cc2)C(=O)c2ccccc21 [Compound 2s] | 3.3 |
| Cc1cc(NS(=O)(=O)c2ccc(NC3=C(Cl)C(=O)c4ccccc4C3=O)cc2)no1 [Compound 2d] | 5.9 |
| Cc1noc(NS(=O)(=O)c2ccc(NC3=C(Cl)C(=O)c4ccccc4C3=O)cc2)c1C [Compound 2h] | 6.4 |
| O=C1C(Cl)=C(Nc2ccc(S(=O)(=O)Nc3ccccn3)cc2)C(=O)c2ccccc21 [PI-083] | 1.2 |

====

| compound | melting point |
| --- | --- |
| Cc1ccc(NS(=O)(=O)c2ccc(NC3=C(Cl)C(=O)c4ccccc4C3=O)cc2)cc1 [Compound 13g] | 257 to 260 °C |
| O=C(NS(=O)(=O)c1ccc(NC2=CC(=O)c3ccccc3C2=O)cc1)c1ccccc1 | 294 to 296 °C |
| CC1=C(Nc2ccc(S(=O)(=O)NC(=O)c3ccccc3)cc2)C(=O)c2ccccc2C1=O | 235 to 237 °C |
| COc1cc(NC2=C(Cl)C(=O)c3ccccc3C2=O)ccc1S(=O)(=O)Nc1ccc(C)cc1 [Compound 13i] | 186 to 189 °C |
| CN(Cc1ccccc1)C1=C(Nc2ccc(S(=O)(=O)Nc3ccccn3)cc2)C(=O)c2ccccc2C1=O | 135 to 140 °C |
| O=C1C(Cl)=C(Nc2ccc(S(=O)(=O)Nc3cnn(-c4ccccc4)c3)cc2)C(=O)c2ccccc21 | 230 to 231 °C |
| CN(C)C1=C(Nc2ccc(S(=O)(=O)Nc3ccccn3)cc2)C(=O)c2ccccc2C1=O | 118 to 120 °C |
| COc1cc(NS(=O)(=O)c2ccc(NC3=C(Cl)C(=O)c4ccccc4C3=O)cc2)nc(OC)n1 | 220 to 222 °C |

====

observable: melting point

| molecule | result |
| --- | --- |
| COc1cc(NS(=O)(=O)c2ccc(NC3=C(C)C(=O)c4ccccc4C3=O)cc2)nc(OC)n1 | 255 to 257 °C |
| COc1ccccc1NS(=O)(=O)c1ccc(NC2=C(Cl)C(=O)c3ccccc3C2=O)cc1 [Compound 13d] | 198 to 201 °C |
| NS(=O)(=O)c1ccc(NC2=C(Cl)C(=O)c3ccccc3C2=O)cc1 | > 300 °C |
| Cc1cc(NS(=O)(=O)c2ccc(NC3=C(Cl)C(=O)c4ccccc4C3=O)cc2)no1 | 215 to 217 °C |

====

tested on: U266 multiple myeloma cells; experiment: MTT metabolism assay; type: cell-based; settings: Homo sapiens, U-266; U266, 72 h; mean ± SD of 3 to 5 experiments; read-out: IC50 for cell viability measured by MTT assay
observable: IC50 (µM)

| structureSmilesString | experimentalTarget | outputUnit | number |
| --- | --- | --- | --- |
| O=C1C(Cl)=C(Nc2ccc(S(=O)(=O)Nc3ccccn3)cc2)C(=O)c2ccccc21 | U266 multiple myeloma cells | µM | 7 |

====

// reported melting point for each item listed
observable: melting point

| molecule | observable | result |
| --- | --- | --- |
| COc1cnc(NS(=O)(=O)c2ccc(NC3=C(C)C(=O)c4ccccc4C3=O)cc2)nc1 [Compound 2m] | melting point | 215 to 217 °C |
| Cc1nnc(NS(=O)(=O)c2ccc(NC3=C(Cl)C(=O)c4ccccc4C3=O)cc2)s1 [Compound 2f] | melting point | 220 °C (dec.) |
| COc1cnc(NS(=O)(=O)c2ccc(NC3=C(Cl)C(=O)c4ccccc4C3=O)cc2)nc1 [Compound 2e] | melting point | 269 to 271 °C |
| COc1cc(NC2=C(Cl)C(=O)c3ccccc3C2=O)ccc1S(=O)(=O)Nc1cccc(C)c1 [Compound 13k] | melting point | 264 to 267 °C |
| Cc1cc(C)nc(NS(=O)(=O)c2ccc(NC3=C(Cl)C(=O)c4ccccc4C3=O)cc2)n1 [Compound 2g] | melting point | 210 °C (dec.) |
